# protocol: Toxicity assay, MTT viability on VERO cells
# Type: cell-based, African Green Monkey
# conditionContext: African green monkey, VERO cells (kidney epithelial cells); VERO cells survival, 48 hours, MTT; average of three independent determinations; read-out: TC50
# Description: Drugs were added at different concentrations and the cells were cultured for 48 hours. The effect was determined using the 3-(4,5-dimethylthiazol-2-yl)-2,5-diphenyltetrazolium bromide (MTT) viability assay. Four hours after the addition of MTT, 100 μl of lysis buffer (50% isopropanol, 30% water, 20% SDS) were added and the cells were incubated at room temperature for 15 min under agitation. Finally, optical density was read at 590 nm with a 96-well scanner (Bio-Rad). […]
measure: CC50 at 48 h (µM)
Field format: number, assumed µM, no unit text.

Could you tell me which CC50 at 48 h is on file for O=[N+]([O-])c1ccc(N2CCC(NCCC(O)c3ccc(F)c4ccccc34)CC2)c(C(F)(F)F)c1 (stereo not shown) ? 5.5
